- Assay Target: Phosphodiesterase 3 (Homo sapiens, UniProt Q14432+Q13370)
- Experimental Details: Inhibition of human platelet c-AMP phosphodiesterase PDE 3
Decide using IC50 alone. Strictly below 0.6 nM: 1. Equal to or above 0.6 nM: -1.

Molecule: Oc1nc2cc3cc(N4CCOCC4)ccc3[nH]c-2n1
Category Label: -1
//
Molecule: CC(C)CN1CCN(C(=O)CCCOc2ccc3[nH]c4nc(O)nc-4cc3c2)CC1
Category Label: -1
//
Molecule: O=C(CCCOc1ccc2[nH]c3nc(O)nc-3cc2c1)N1CCN(Cc2ccc3c(c2)OCO3)CC1
Category Label: -1

Please examine the following record next.
Is the reported IC50 for O=C(CCCOc1ccc2[nH]c3nc(O)nc-3cc2c1)N1CCN(C(c2ccccc2)c2ccccc2)CC1 strictly below 0.6 nM?
-1
